Each entry below carries its recorded ratio to parent.
B1: H2-Kb / Ed9 (parent complex)
chain 1: AQSVTQPDARVTVSEGASLQLRCKYSYFGTPYLFWYVQYPRQGLQLLLKYYPGDPVVQGVNGFEAEFSKSNSSFHLRKASVHWSDWAVYFCAVSITGGYKVVFGSGTRLLVSP
chain 2: DSGVVQSPRHIIKEKGGRSVLTCIPISGHSNVVWYQQTLGKELKFLIQHYEKVERDKGFLPSRFSVQQFDDYHSEMNMSALELEDSAMYFCASSPRQSDYTFGSGTRLLVI
chain 3: not shown
chain 4: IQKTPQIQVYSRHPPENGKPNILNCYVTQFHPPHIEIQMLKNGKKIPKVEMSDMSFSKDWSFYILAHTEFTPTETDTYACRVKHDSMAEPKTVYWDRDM
chain 5: SIINFEKL

Variants of: B1
Experiment: % of reporter cells activated (NFAT-GFP), raw; note: test concentration or dose not given here
Endpoint: ratio to parent

>  <Mutation Descriptor>
chain 5 L8F

>  <Endpoint>
ratio to parent

>  <Recorded Value>
1.14

$$$$
>  <Mutation Descriptor>
chain 5 S1A

>  <Endpoint>
ratio to parent

>  <Recorded Value>
1.17

$$$$
>  <Mutation Descriptor>
chain 5 F5L

>  <Endpoint>
ratio to parent

>  <Recorded Value>
1.36

$$$$
>  <Mutation Descriptor>
chain 5 I2E

>  <Endpoint>
ratio to parent

>  <Recorded Value>
1.11

$$$$
>  <Mutation Descriptor>
chain 5 L8T

>  <Endpoint>
ratio to parent

>  <Recorded Value>
1.09

$$$$
>  <Mutation Descriptor>
chain 5 N4D

>  <Endpoint>
ratio to parent

>  <Recorded Value>
0.832

$$$$
>  <Mutation Descriptor>
chain 5 L8C

>  <Endpoint>
ratio to parent

>  <Recorded Value>
0.957

$$$$
>  <Mutation Descriptor>
chain 5 I2R

>  <Endpoint>
ratio to parent

>  <Recorded Value>
1.12

$$$$
>  <Mutation Descriptor>
chain 5 N4F

>  <Endpoint>
ratio to parent

>  <Recorded Value>
0.012

$$$$
>  <Mutation Descriptor>
chain 5 S1F

>  <Endpoint>
ratio to parent

>  <Recorded Value>
0.245

$$$$
>  <Mutation Descriptor>
chain 5 L8M

>  <Endpoint>
ratio to parent

>  <Recorded Value>
1.14

$$$$
>  <Mutation Descriptor>
chain 5 F5D

>  <Endpoint>
ratio to parent

>  <Recorded Value>
0.945

$$$$
>  <Mutation Descriptor>
chain 5 N4H

>  <Endpoint>
ratio to parent

>  <Recorded Value>
0.294

$$$$
>  <Mutation Descriptor>
chain 5 I3R

>  <Endpoint>
ratio to parent

>  <Recorded Value>
0.385

$$$$
>  <Mutation Descriptor>
chain 5 K7T

>  <Endpoint>
ratio to parent

>  <Recorded Value>
0.957

$$$$
>  <Mutation Descriptor>
chain 5 F5G

>  <Endpoint>
ratio to parent

>  <Recorded Value>
1.05

$$$$
>  <Mutation Descriptor>
chain 5 S1E

>  <Endpoint>
ratio to parent

>  <Recorded Value>
0.0209

$$$$
>  <Mutation Descriptor>
chain 5 S1Y

>  <Endpoint>
ratio to parent

>  <Recorded Value>
0.802

$$$$
>  <Mutation Descriptor>
chain 5 L8Q

>  <Endpoint>
ratio to parent

>  <Recorded Value>
1.18

$$$$
>  <Mutation Descriptor>
chain 5 E6D

>  <Endpoint>
ratio to parent

>  <Recorded Value>
0.85

$$$$
>  <Mutation Descriptor>
chain 5 K7D

>  <Endpoint>
ratio to parent

>  <Recorded Value>
0.294

$$$$
>  <Mutation Descriptor>
chain 5 K7L

>  <Endpoint>
ratio to parent

>  <Recorded Value>
0.719

$$$$
